Biological target: T1, human BCMA (human, UniProt Q02223 1-54)
T1 construct: also called huBCMA; hBCMA
T1 sequence: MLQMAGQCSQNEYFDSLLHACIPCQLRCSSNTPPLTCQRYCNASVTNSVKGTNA
Test: SPR, immobilised IgG, 25° C
property measured: T½

For every listed record, write down its T½.
1. L1.GDF/L3.KW/H3.AL (antibody, V domains shown, IgG in the assay) VH: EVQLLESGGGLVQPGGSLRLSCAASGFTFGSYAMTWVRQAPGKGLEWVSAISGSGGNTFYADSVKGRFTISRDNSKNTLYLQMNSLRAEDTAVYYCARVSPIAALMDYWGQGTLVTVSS VL: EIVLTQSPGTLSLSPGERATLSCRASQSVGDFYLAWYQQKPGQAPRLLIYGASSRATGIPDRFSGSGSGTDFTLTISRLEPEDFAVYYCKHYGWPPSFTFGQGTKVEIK
2. L1.GDF/L3.NY/H3.AQ (antibody, V domains shown, IgG in the assay) VH: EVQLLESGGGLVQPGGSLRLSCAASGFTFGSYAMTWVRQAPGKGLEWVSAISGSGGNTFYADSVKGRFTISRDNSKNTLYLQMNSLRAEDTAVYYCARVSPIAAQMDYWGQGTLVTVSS VL: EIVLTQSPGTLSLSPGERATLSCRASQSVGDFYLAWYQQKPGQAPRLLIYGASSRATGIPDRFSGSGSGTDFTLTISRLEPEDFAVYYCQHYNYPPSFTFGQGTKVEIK

2.96 min
16 min

Record T½ for all entries; do not skip any.
1. L1.LGF/L3.PY/H3.AP (antibody, V domains shown, IgG in the assay) VH: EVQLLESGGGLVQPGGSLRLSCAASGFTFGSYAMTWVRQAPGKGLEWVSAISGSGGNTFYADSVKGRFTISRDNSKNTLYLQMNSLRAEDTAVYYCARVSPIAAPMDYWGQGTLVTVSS VL: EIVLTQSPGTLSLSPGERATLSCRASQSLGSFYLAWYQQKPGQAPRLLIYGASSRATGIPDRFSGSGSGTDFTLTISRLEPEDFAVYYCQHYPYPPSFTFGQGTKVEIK
2. L1.GDF/L3.KW/H3.AQ (antibody, V domains shown, IgG in the assay) VH: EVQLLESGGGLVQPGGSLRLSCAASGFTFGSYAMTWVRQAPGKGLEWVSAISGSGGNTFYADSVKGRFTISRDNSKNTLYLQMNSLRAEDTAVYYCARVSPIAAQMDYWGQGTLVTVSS VL: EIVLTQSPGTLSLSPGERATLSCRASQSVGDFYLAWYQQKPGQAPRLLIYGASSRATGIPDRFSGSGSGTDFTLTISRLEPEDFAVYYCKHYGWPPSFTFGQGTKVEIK
3. L3.NY/P6E01 (antibody, V domains shown, IgG in the assay) VH: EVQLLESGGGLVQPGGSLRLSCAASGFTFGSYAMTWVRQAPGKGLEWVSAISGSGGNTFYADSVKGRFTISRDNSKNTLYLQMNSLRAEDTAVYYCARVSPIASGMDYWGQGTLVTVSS VL: EIVLTQSPGTLSLSPGERATLSCRASQSVSSSYLAWYQQKPGQAPRLLIYGASSRATGIPDRFSGSGSGTDFTLTISRLEPEDFAVYYCQHYNYPPSFTFGQGTKVEIK

1. 11.9 min
2. 3.32 min
3. 30.1 min

// each listed binder needs a value for T½
1. L1.LGF/L3.NY/H3.AP (antibody, V domains shown, IgG in the assay) VH: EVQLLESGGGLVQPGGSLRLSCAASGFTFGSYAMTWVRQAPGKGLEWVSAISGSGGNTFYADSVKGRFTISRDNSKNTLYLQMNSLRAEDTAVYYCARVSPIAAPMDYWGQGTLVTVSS VL: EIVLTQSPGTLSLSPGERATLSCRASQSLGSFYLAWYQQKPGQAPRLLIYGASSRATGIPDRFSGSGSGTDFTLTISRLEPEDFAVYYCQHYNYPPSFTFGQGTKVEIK
2. L1.LGF/L3.KW/H3.AL (antibody, V domains shown, IgG in the assay) VH: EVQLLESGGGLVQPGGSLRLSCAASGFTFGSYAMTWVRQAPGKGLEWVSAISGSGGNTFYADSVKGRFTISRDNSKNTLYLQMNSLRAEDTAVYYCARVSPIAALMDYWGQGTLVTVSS VL: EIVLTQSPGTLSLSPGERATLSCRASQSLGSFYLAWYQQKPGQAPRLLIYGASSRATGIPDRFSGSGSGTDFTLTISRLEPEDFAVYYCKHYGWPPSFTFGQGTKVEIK
3. L1.LGF/L3.KW/H3.AQ (antibody, V domains shown, IgG in the assay) VH: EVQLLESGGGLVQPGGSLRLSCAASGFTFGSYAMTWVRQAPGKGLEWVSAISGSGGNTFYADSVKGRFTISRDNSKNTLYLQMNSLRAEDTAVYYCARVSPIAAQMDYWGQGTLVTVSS VL: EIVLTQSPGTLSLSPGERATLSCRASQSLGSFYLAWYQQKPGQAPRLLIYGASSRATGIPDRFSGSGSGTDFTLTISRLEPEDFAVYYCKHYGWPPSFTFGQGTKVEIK
4. L1.LGF/L3.KW/H3.AP (antibody, V domains shown, IgG in the assay) VH: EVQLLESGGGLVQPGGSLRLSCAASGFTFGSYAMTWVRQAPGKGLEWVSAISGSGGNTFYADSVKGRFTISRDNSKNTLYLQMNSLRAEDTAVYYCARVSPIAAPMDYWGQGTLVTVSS VL: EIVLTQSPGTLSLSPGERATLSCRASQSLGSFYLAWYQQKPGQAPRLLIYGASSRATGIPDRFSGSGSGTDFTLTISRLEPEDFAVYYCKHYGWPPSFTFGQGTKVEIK
5. L1.GDF/L3.NY/H3.AP (antibody, V domains shown, IgG in the assay) VH: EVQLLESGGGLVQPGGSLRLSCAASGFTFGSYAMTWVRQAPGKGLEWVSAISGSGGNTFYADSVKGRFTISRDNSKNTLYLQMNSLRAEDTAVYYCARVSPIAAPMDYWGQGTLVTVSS VL: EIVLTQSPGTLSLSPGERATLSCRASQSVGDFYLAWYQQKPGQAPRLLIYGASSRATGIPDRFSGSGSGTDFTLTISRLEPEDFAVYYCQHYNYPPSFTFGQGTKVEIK

1. 21.7 min
2. 9.4 min
3. 12.1 min
4. 5.1 min
5. 8.21 min

Source of measurements: patent US20240018252A1
